Tested on: SEM cells
Assay: cell viability relative to DMSO control; higher = less cytotoxic
Conditions: RPMI 5 mM glucose + 10% dialyzed FBS; 48 h; 0.00702 µM

compound: CC(NC1=CC=CC=C1)C\2=C\C(=C/N3C(=O)\C=C(/N=C23)N4CCOCC4)C (centres undefined)
cell viability / %: 113
//
compound: NC[C@H]1CC[C@H](C(=O)O)CC1
cell viability / %: 106
//
compound: COC1=CC=CC2=C1C(=NC(=N2)C3=CC=CS3)NN4C(=O)\C=C(C)/C4=O
cell viability / %: 88.5
//
compound: COc1cc2c(cc1-c1c(C)noc1C)ncc1[nH]c(=O)n([C@H](C)c3ccccn3)c12
cell viability / %: 110

###

System: P12-Ichikawa
Test: AUC of viability dose-response curve (% viability x log10 dose units); higher = less sensitive
Details: HPLM + 10% dialyzed FBS; 48 h

smilesStr: NC1(C(=O)N[C@@H](CCO)c2ccc(Cl)cc2)CCN(c2ncnc3[nH]ccc23)CC1
targetEntity: P12-Ichikawa
AUC of viability dose-response curve: 391
//
smilesStr: N=C(CCSCc1csc(N=C(N)N)n1)N[S+](N)(=O)[O-]
targetEntity: P12-Ichikawa
AUC of viability dose-response curve: 467
//
smilesStr: CCCC1=NC(=C2[N]1NC(=N\C2=O)/C3=CC(=CC=C3OCC)[S+]([O-])(=O)N4CCN(CC)CC4)C
targetEntity: P12-Ichikawa
AUC of viability dose-response curve: 421
//
smilesStr: CCCc1nc(C(C)(C)O)c(C(=O)O)n1Cc1ccc(-c2ccccc2-c2nn[nH]n2)cc1
targetEntity: P12-Ichikawa
AUC of viability dose-response curve: 448
//
smilesStr: CN(c1ncccc1CNc1nc(Nc2ccc3c(c2)CC(=O)N3)ncc1C(F)(F)F)[S+](C)(=O)[O-]
targetEntity: P12-Ichikawa
AUC of viability dose-response curve: 462
//
smilesStr: C=CC(=O)Nc1cccc(Oc2nc(Nc3ccc(N4CCN(C)CC4)cc3)ncc2Cl)c1
targetEntity: P12-Ichikawa
AUC of viability dose-response curve: 420

###

The reader will find reported AUC of viability dose-response curve values listed item by item below.
System: P12-Ichikawa
Assay: AUC of viability dose-response curve (% viability x log10 dose units); higher = less sensitive
Conditions: HPLM + 10% dialyzed FBS; 48 h

compound: C=C(C)[C@@H]1CC[C@]2(C(=O)O)CC[C@]3(C)[C@H](CC[C@@H]4[C@@]5(C)CC[C@H](O)C(C)(C)[C@@H]5CC[C@]43C)[C@@H]12
AUC of viability dose-response curve: 445
--
compound: CC(C)n1c(/C=C/[C@H](O)C[C@H](O)CC(=O)O)c(-c2ccc(F)cc2)c2ccccc21
AUC of viability dose-response curve: 381
--
compound: CC1(C)CCC[C@]2(C)[C@H]3CC(=O)O[C@]3(C)CC[C@@H]12
AUC of viability dose-response curve: 468
--
compound: C[C@@H](NC1=CC=CC=C1C(O)=O)C/2=C/C(=C\N3C(=O)/C=C(\N=C23)N4CCOCC4)C
AUC of viability dose-response curve: 407
--
compound: CC(C)(C)c1cc(NC(=O)Nc2ccc(-c3cn4c(n3)sc3cc(OCCN5CCOCC5)ccc34)cc2)no1
AUC of viability dose-response curve: 468
--
compound: Cc1cn2c(-c3cn[nH]c3)cnc2c(Nc2ccc(C(=O)N3CCNCC3)cc2F)n1
AUC of viability dose-response curve: 444
--
compound: CC1=C(/C=C/C(C)=C/C=C/C(C)=C/C=C/C=C(C)/C=C/C=C(C)/C=C/C2=C(C)CCCC2(C)C)C(C)(C)CCC1
AUC of viability dose-response curve: 469
--
compound: COC1CCC(CC1)N(C(=O)C2CCC(C)CC2)C3=C(SC(=C3)\C4=C\CCCC4)C(O)=O (centres undefined)
AUC of viability dose-response curve: 438
--
compound: Cc1cc(CN2CCN(c3c(Br)cnc4[nH]c(-c5ccc(N6CCN(C)CC6)cc5)nc34)CC2)no1
AUC of viability dose-response curve: 329
--
compound: O=NN(CCCl)C(=O)NCCCl
AUC of viability dose-response curve: 465
--
compound: CC(=O)Oc1ccccc1C(=O)O
AUC of viability dose-response curve: 466
--
compound: O=NN(CCCl)C(=O)NC1CCCCC1
AUC of viability dose-response curve: 468
--
compound: CC(C)N(CCNC(=O)CN1CCCC1=O)C(C)C
AUC of viability dose-response curve: 460
--
compound: C[C@H](NC(=O)/C(C#N)=C/c1cccc(Br)n1)c1ccccc1
AUC of viability dose-response curve: 336
--
compound: C[C@H](O)[C@H]1[C@@H]2[C@H](C)C(=C(\N2C1=O)C(O)=O)/S[C@@H]3CN[C@H](CN[S+](N)([O-])=O)C3
AUC of viability dose-response curve: 465
--
compound: CC/1=C/C(=O)N(O)/C(=C1)C2CCCCC2
AUC of viability dose-response curve: 435
--
compound: CCc1cc(Nc2nccc(-c3c(-c4ccc(OC)c(C(=O)Nc5c(F)cccc5F)c4)nc4ccccn34)n2)c(OC)cc1N1CCC(N2CCN([S+](C)(=O)[O-])CC2)CC1
AUC of viability dose-response curve: 453
--
compound: OC(=O)C1=CC=C(NC2=NC3=C(C\N=C(/C4=CC(=CC=C34)Cl)C5=C(F)C=CC=C5F)C=N2)C=C1
AUC of viability dose-response curve: 344
--
compound: CC1=CC=CC=C1N2\C(=N/C3=C(C(=CC=C3)C)C2=O)C[N]4C=NC5=C4N=CN=C5N
AUC of viability dose-response curve: 439
--
compound: NC(=O)c1cnc(N[C@@H]2CCCC[C@@H]2N)nc1Nc1cccc(-n2nccn2)c1
AUC of viability dose-response curve: 468
--
compound: COc1ccc(-c2cc3nccn3c(Nc3ncccc3C(N)=O)n2)cc1OC
AUC of viability dose-response curve: 471
--
compound: Cl.Cl.Cl.O[C@@H](COc1cccc2ncccc12)CN1CCN([C@@H]2c3ccccc3[C@@H]3[C@H](c4ccccc42)C3(F)F)CC1
AUC of viability dose-response curve: 418
--
compound: Cc1c(CN2CCN(C(=O)[C@H](C)O)CC2)sc2c(N3CCOCC3)nc(-c3cnc(N)nc3)nc12
AUC of viability dose-response curve: 401
--
compound: C[C@H]1[C@H](NC(=O)/C(=N/OC(C)(C)C(=O)O)c2csc(N)n2)C(=O)N1[S+](=O)([O-])O
AUC of viability dose-response curve: 470
